- tested_target: E.coli thymidylate synthase (TS) (Escherichia coli)
- Sequence (P0A884 whole entry): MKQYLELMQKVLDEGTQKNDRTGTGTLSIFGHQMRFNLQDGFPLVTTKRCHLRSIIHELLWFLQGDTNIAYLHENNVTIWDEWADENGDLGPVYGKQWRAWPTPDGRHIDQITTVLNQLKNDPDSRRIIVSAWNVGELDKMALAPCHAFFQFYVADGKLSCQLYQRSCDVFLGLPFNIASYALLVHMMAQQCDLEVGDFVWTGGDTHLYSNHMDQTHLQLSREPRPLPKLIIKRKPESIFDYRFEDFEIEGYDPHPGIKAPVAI
- run_description: Thymidylate synthase inhibition constants against 5,10-methylene-tetrahydrofolate
- Type: biochemical
- Method: Determination of Inhibition Constants Against 5,10-Methylene-Tetrahydrofolate Thymidylate synthase inhibition constants K₁ have been determined by the following method. All assays were run at 25°C and initiated by the addition of thymidylate synthase ("TS"). […] Charcoal was used to remove unreacted dUMP from the tritium release reaction mixtures and the resultant water was counted to determine the extent of reaction.
metric: Ki (µM)
State just the number; it will be interpreted in µM.

Recorded Ki of C#CCN(Cc1ccc2nc(C)nc(O)c2c1)c1ccc(C(=O)c2ccccc2)cc1 [Compound 4-COPh] , please.
0.5

Entry to check: C#CCN(Cc1cccc2c(NC=O)coc12)c1ccc([N+](=O)[O-])cc1 [Compound E]
70.9

Please answer likewise for C#CCN(Cc1ccc2nc(C)nc(O)c2c1)c1cccc(C)c1 [Compound 3-CH3]
16.3

Then C#CCN(Cc1ccc2nc(C)nc(O)c2c1)c1cccc(CO)c1 [Compound 3-CH2OH] ?
6.7

Follow-up item: C#CCN(Cc1ccc2nc(-c3ccccc3)[nH]c(=O)c2c1)c1ccc(Cl)cc1 [Compound C]
42.6

Now consider C#CCN(Cc1ccc2nc(C)[nH]c(=O)c2c1)c1ccc(S(N)(=O)=O)cc1 [Compound 4-SO2NH2] and answer again.
0.25

// repeat for C#CCN(Cc1ccc2nc(C)nc(O)c2c1)c1ccc(Cl)cc1 [Compound 4-Cl] and report
5.9

How about this compound: C#CCN(Cc1ccc2nc(C)nc(O)c2c1)c1ccc(S(=O)(=O)NCC(=O)O)c(C(F)(F)F)c1 [3-CF3,4-SO2NHCH2COOH]
0.015

Again, but for C#CCN(Cc1ccc2nc(C)nc(O)c2c1)c1ccc([N+](=O)[O-])cc1 [Compound 4-NO2]
0.12

Now try C#CCN(Cc1ccc2nc(C)nc(O)c2c1)c1ccc([N+](=O)[O-])c(C(F)(F)F)c1 [3-CF3,4-NO2] .
0.078

Moving on to the next compound: C#CCN(Cc1ccc2nc(C)nc(O)c2c1)c1cccc(Br)c1 [Compound 3-Br]
5.5

Can you handle C#CCN(Cc1ccc2nc(C)nc(O)c2c1)c1cccc(CC)c1 [Compound 3-C2H5] next?
24.5

Same lookup for C#CCN(Cc1ccc2nc(C)nc(O)c2c1)c1cccc(I)c1 [Compound 3-I] , please.
49

What would you report for C#CCN(Cc1ccc2nc(C)nc(O)c2c1)c1ccc(C#N)cc1 [Compound 4-CN] ?
0.52

Then what about the compound C#CCN(Cc1ccc2nc(C)[nH]c(=O)c2c1)c1ccc(C#N)c(C(F)(F)F)c1 [3-CF3,4-CN] ?
0.036

Now consider C#CCN(Cc1ccc2nc(C)nc(S)c2c1)c1cccc(C(F)(F)F)c1 [Compound D] .
3.3

Consider next the compound C#CCN(Cc1ccc2nc(C)[nH]c(=O)c2c1)c1ccc(S(=O)(=O)C(F)(F)F)cc1 [Compound A] in the same way.
0.015
